# EXPERIMENTAL SYSTEM: CD28 (Homo sapiens, UniProt P10747)
# ASSAY EXPLANATION: Jurkat/IL2 reporter assay: blockade of CD28 costimulation (plate-bound anti-CD3/CD86-Fc)
# Type: cell-based
# Parameters: host or cells: Jurkat cells expressing an IL-2-luciferase reporter
# CONDITION INFO: Table E5; protein diluted to 40 nM before mixing with cells; 5 hours
Recorded measurements of Average Relative Luminescence Units, one per entry

V22L/M38V/M47I/A71D/L85M: variant CD80 IgV-Fc, IgV SEQ ID NO:158 (protein) VIHVTKEVKEVATLSCGHNVSLEELAQTRIYWQKEKKVVLTMMSGDTNIWPEYKNRTIFDITNNLSIVILDLRPSDEGTYECVVMKYEKDAFKREHLAEVTLSVKAD; 1770 Relative Luminescence Units

Now let's try a different one.
Q: What measured Average Relative Luminescence Units goes with E35D/M47L: variant CD80 IgV-Fc, IgV SEQ ID NO:208 (protein) VIHVTKEVKEVATLSCGHNVSVEELAQTRIYWQKDKKMVLTMMSGDLNIWPEYKNRTIFDITNNLSIVILALRPSDEGTYECVVLKYEKDAFKREHLAEVTLSVKAD ?
Result: 1110 Relative Luminescence Units
